Source: patent US10150760B2

The following compounds are shown together with reported log10(EC50) values.
- Tested system: human APJ receptor (Homo sapiens (Human), UniProt P35414)
- Sequence (P35414 whole entry): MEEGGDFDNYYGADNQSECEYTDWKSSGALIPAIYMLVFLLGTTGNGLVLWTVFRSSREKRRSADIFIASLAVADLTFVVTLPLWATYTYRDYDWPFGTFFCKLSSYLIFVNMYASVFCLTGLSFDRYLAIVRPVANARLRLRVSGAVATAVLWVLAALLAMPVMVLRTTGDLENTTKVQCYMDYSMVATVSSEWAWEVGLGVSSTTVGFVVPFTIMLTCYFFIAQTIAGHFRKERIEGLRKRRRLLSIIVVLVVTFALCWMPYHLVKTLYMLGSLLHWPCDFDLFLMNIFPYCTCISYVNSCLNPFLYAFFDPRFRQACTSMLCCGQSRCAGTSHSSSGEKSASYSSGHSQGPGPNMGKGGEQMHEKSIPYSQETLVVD
- Experiment notes: [35S]GTPγS binding assay on membranes from CHO cells stably expressing human APJ receptor
- Assay type: biochemical
- Condition description: read-out: Activity hAPJ SPA EC50 IP
# values: log10(EC50), units nM

In the examples that follow, each entry is paired with its recorded log10(EC50).
Record COCC(COC)n1c(NS(=O)(=O)[C@@H](C)[C@@H](OC(C)C)c2ncc(Cl)cn2)nnc1[C@@H]1COCCO1 (single isomer, unassigned) [Example 357.0] . Reported log10(EC50): 2.45

Record COc1cccc(OC)c1-n1c(NS(=O)(=O)[C@@H](C)[C@H](C)c2ncc(F)cn2)nnc1[C@H]1CCC(C)(C)O1 (single isomer, unassigned) [Example 333.0] . Reported log10(EC50): 2.28

Record `COc1cccc(OC)c1-n1c(NS(=O)(=O)CCc2ccc(F)cc2C#N)nnc1[C@H]1CCC(=O)N1` . Reported log10(EC50): 3.08

Next:
Record `Cc1cnc([C@@H](C)[C@H](C)S(=O)(=O)Nc2nnc([C@H]3CCCO3)n2-c2c(F)cncc2F)nc1` . Reported log10(EC50): 2.94

Record COc1cccc(OC)c1-n1c(NS(=O)(=O)CCc2ccc(Cl)cc2)nnc1[C@@H]1CCCO1 (single isomer, unassigned) [Example 144.0] . Reported log10(EC50): 1.90

Record CO[C@H](c1ncc(Cl)cn1)[C@H](C)S(=O)(=O)Nc1nnc([C@@H]2COCCO2)n1C(C1CC1)C1CC1 (single isomer, unassigned) [Example 338.0] . Reported log10(EC50): 2.04
